experiment: Displacement of FITC-labeled PPS1D1 from lipid phosphatidylserine assessed as remaining fluorescence at 1 uM incubated for 1 hr by ELISA-like competitive binding assay
Activity calls are given as the source filed them. No cut-off for these calls is given here.
property-measured: inhibition

COc1ccc(CN(CC(=O)N(CCCCN)CC(=O)N[C@@H](CCCCN)C(=O)N[C@H](CCCCN)C(=O)N[C@@H](CCSC)C(=O)NCCCCC(NC(=O)[C@H](CCSC)NC(=O)[C@@H](CCCCN)NC(=O)[C@H](CCCCN)NC(=O)CN(CCCCN)C(=O)CN(Cc2ccc(OC)cc2)C(=O)CN(C)C(=O)CN(Cc2ccc3c(c2)OCO3)C(=O)CN[C@H](C)c2ccccc2)C(N)=O)C(=O)CN(C)C(=O)CN(Cc2ccc3c(c2)OCO3)C(=O)CN[C@H](C)c2ccccc2)cc1 (stereo partly drawn) ... inactive
CSCC[C@H](NC(=O)[C@@H](CCCCN)NC(=O)[C@H](CCCCN)NC(=O)CNCCCCN)C(=O)NCCCCC(NC(=O)[C@H](CCSC)NC(=O)[C@@H](CCCCN)NC(=O)[C@H](CCCCN)NC(=O)CNCCCCN)C(N)=O (stereo partly drawn) ... inactive
COc1ccc(CN(CC(=O)N(CCCCN)CC(=O)N[C@@H](CCCCN)C(=O)N[C@H](CCCCN)C(=O)N[C@@H](CCSC)C(=O)NCCCCC(NC(=O)[C@H](CCSC)NC(=O)[C@@H](CCCCN)NC(=O)[C@H](CCCCN)NC(=O)CN(CCCCN)C(=O)CN(Cc2ccc(OC)cc2)C(=O)CN[C@H](C)c2ccccc2)C(N)=O)C(=O)CN[C@H](C)c2ccccc2)cc1 (stereo partly drawn) ... inactive

====

experiment: Displacement of FITC-labeled PPS1D1 from lipid phosphatidylserine assessed as remaining fluorescence at 1 uM incubated for 1 hr by ELISA-like competitive binding assay
Calls of active or inactive are those of the source. No cut-off for these calls is given here.
One label from this list, please: True for active, False for inactive

Ask: Test call for this molecule, please: C=CCNCC(=O)N(CCOC)CC(=O)N(CC=C)CC(=O)N(CCOC)CC(=O)N(CC=C)CC(=O)NCC(=O)N[C@H](CCCCN)C(=O)N[C@@H](CCSC)C(=O)NCCCCC(NC(=O)[C@H](CCSC)NC(=O)[C@@H](CCCCN)NC(=O)CNC(=O)CN(CC=C)C(=O)CN(CCOC)C(=O)CN(CC=C)C(=O)CN(CCOC)C(=O)CNCC=C)C(N)=O (stereo partly specified)
Result: False

====

experiment: Displacement of FITC-labeled PPS1D1 from lipid phosphatidylserine assessed as remaining fluorescence at 1 uM incubated for 1 hr by ELISA-like competitive binding assay
Active and inactive are the calls of the source. The calls are words filed in the database; no cut-off is given here.
One label from this list, please: active, inactive

Reference set, count: 4
COc1ccc(CNCC(=O)N(CCCCN)CC(=O)N[C@@H](CCCCN)C(=O)N[C@H](CCCCN)C(=O)N[C@@H](CCSC)C(=O)NCCCCC(NC(=O)[C@H](CCSC)NC(=O)[C@@H](CCCCN)NC(=O)[C@H](CCCCN)NC(=O)CN(CCCCN)C(=O)CNCc2ccc(OC)cc2)C(N)=O)cc1 (stereo not given in full) ... inactive
CSCC[C@H](NC(=O)[C@@H](CCCCN)NC(=O)[C@H](CCCCN)NC(=O)CN(CCCCN)C(=O)CN(C)C(=O)CN(C(=O)CN(Cc1ccc2c(c1)OCO2)C(=O)CN[C@H](C)c1ccccc1)[C@H](C)c1ccccc1)C(=O)NCCCCC(NC(=O)[C@H](CCSC)NC(=O)[C@@H](CCCCN)NC(=O)[C@H](CCCCN)NC(=O)CN(CCCCN)C(=O)CN(C)C(=O)CN(C(=O)CN(Cc1ccc2c(c1)OCO2)C(=O)CN[C@H](C)c1ccccc1)[C@H](C)c1ccccc1)C(N)=O (stereo not given in full) ... inactive
COc1ccc(CN(CC(=O)N(CCCCN)CC(=O)N[C@@H](CCCCN)C(=O)N[C@H](CCCCN)C(=O)N[C@@H](CCSC)C(=O)NCCCCC(NC(=O)[C@H](CCSC)NC(=O)[C@@H](CCCCN)NC(=O)[C@H](CCCCN)NC(=O)CN(CCCCN)C(=O)CN(Cc2ccc(OC)cc2)C(=O)CN(C(=O)CNCc2ccc3c(c2)OCO3)[C@H](C)c2ccccc2)C(N)=O)C(=O)CN(C(=O)CNCc2ccc3c(c2)OCO3)[C@H](C)c2ccccc2)cc1 (stereo not given in full) ... inactive
CSCC[C@H](NC(=O)[C@@H](CCCCN)NC(=O)[C@@H](N)CCCCN)C(=O)NCCCCC(NC(=O)[C@H](CCSC)NC(=O)[C@@H](CCCCN)NC(=O)[C@@H](N)CCCCN)C(N)=O (stereo not given in full) ... inactive

Now take the following compound into account.
Ask: Test call for this compound, please: COc1ccc(CN(CC(=O)N(CCCCN)CC(=O)N[C@@H](CCCCN)C(=O)N[C@H](CCCCN)C(=O)N[C@@H](CCSC)C(=O)NCCCCC(NC(=O)[C@H](CCSC)NC(=O)[C@@H](CCCCN)NC(=O)[C@H](CCCCN)NC(=O)CN(CCCCN)C(=O)CN(Cc2ccc(OC)cc2)C(=O)CN(C(=O)CN(Cc2ccc3c(c2)OCO3)C(=O)CN[C@H](C)c2ccccc2)[C@H](C)c2ccccc2)C(N)=O)C(=O)CN(C(=O)CN(Cc2ccc3c(c2)OCO3)C(=O)CN[C@H](C)c2ccccc2)[C@H](C)c2ccccc2)cc1 (stereo not given in full)
Result: active
